- Assayed Target: T1, human CXCR2 (human, UniProt P25025 1-360)
- T1 construct: also called CXC chemokine receptor 2; hCXCR2
- T1 sequence: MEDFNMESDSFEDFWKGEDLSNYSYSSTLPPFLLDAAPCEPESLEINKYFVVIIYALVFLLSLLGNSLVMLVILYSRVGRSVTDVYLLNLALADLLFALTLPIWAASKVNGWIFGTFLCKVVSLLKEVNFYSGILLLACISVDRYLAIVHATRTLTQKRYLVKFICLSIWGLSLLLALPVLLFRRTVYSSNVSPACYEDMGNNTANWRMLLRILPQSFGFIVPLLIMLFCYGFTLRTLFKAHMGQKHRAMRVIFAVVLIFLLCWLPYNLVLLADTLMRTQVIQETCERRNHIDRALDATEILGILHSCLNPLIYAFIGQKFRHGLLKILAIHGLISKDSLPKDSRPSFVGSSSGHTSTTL
- Method Summary: flow cytometry, CXCR2-transfected Expi293F cells
Parameter: pEC50
Reminder that pEC50 means the negative base-10 logarithm of the concentration expressed in mol/L.

Binder	Parameter	Number
BKO-4A8-103c (antibody, human IgG4 S228P, lambda, V domains shown, IgG4 S228P, lambda) VH: EVQLLESGGGLVQPGGSLRLSCAASGFTFSSSTQSWVRQPPGKGLEWVSAISGSGGSTYYADSVKGRFTISRDNSKNTLYLQMNSLRAEDTAVYYCAIQMGYWGQGILVTVSS VL: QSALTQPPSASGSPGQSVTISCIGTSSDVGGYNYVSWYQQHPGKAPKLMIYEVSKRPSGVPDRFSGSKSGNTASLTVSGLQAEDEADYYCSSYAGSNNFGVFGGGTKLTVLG	pEC50	8.29

Given item BKO-4A8 combinatorial variant 102c (antibody, human IgG4 S228P, lambda, V domains shown, IgG4 S228P, lambda) VH: EVQLLESGGGLVQPGGSLRLSCAASGFTFSSSTQSWVRQPPGKGLEWVSAISGRGRSTYYADSVKGRFTISRDNSKNTLYLQMNSLRAEDTAVYYCAIQEGYWGQGILVTVSS VL: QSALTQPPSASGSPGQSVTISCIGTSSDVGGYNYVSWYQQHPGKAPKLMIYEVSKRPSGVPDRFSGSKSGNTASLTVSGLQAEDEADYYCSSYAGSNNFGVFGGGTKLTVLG , the value recorded as its pEC50 is 8.06

Reported pEC50 ( BKO-4A8-101c (antibody, human IgG4 S228P, lambda, V domains shown) VH: EVQLLESGGGLVQPGGSLRLSCAASGFTFSSSTQSWVRQPPGKGLEWVSAISGRGRSTYYADSVKGRFTISRDNSKNTLYLQMNSLRAEDTAVYYCAIQAGYWGQGILVTVSS VL: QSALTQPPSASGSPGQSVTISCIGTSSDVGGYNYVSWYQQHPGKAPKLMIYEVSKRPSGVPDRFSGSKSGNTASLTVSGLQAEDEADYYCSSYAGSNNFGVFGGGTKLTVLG ) = 8.52
